Molecular target: T1, full-length recombinant human RAD51 (N-terminal 6xHis-tagged) (human, UniProt Q06609 1-339)
T1 construct: RAD51, human, full length; recombinase of 339 amino acids, about 40 kDa as monomer; Forms fibrils (homo-oligomers) without DNA; for MST labelled on the His tag with RED-tris-NTA 2nd Generation dye; also called His-RAD51; 6xHis-RAD51; source: E. coli Rosetta2(DE3) pLysS, pET15b, purified (His-Trap, anion exchange); not shown: His6, N-terminal, kept
T1 sequence (looked up): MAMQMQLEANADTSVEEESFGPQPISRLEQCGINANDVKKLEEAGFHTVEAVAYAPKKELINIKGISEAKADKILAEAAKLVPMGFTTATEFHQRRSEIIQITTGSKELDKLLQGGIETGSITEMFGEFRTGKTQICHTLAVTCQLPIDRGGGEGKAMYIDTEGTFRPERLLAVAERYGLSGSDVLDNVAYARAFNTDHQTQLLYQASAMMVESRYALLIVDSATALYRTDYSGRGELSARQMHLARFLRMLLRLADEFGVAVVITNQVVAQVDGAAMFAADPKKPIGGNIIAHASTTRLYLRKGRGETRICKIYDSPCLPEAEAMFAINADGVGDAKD
Assay: MST; RED-tris-NTA-labelled 6xHis-RAD51 constant (25 nM in the methods, 100 nM in the results), 16 concentrations of BRC4 up to 32 µM; apparent Kd bounded by the lowest EC50 (titration regime)
Details: both partners purified
pKd: −log10 of the molar value.
QUANTITY MEASURED: pKd

Name the reported pKd value associated with the binder KEPTLLGFHTASGKKVKIAKESLDKVKNLFDEKEQ (BRCA2, fourth BRC repeat, residues 1517-1551, MW 3957.6 Da; also called fourth BRC repeat of BRCA2; source: bought: Thermo Fisher Scientific (synthetic peptide)) [BRC4 peptide (residues 1517-1551 of BRCA2)]
≥ 7.22
